# tgt: Serine/threonine-protein kinase Chk1 (Homo sapiens) (UniProt O14757)
# Sequence (whole entry): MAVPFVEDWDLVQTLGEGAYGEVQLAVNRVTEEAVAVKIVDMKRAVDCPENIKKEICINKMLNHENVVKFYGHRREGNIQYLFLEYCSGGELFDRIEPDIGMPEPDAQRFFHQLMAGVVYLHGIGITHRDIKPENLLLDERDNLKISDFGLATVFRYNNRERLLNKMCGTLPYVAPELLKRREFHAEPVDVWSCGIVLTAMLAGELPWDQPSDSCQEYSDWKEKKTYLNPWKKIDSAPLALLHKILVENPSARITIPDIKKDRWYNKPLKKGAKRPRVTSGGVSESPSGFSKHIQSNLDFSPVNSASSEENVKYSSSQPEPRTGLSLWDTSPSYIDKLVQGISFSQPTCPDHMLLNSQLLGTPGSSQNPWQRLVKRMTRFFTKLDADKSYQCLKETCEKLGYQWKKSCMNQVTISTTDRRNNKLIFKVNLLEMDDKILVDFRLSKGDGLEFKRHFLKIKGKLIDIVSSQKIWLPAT
# assayInfo: Inhibition of human Chk1 at 10 uM
Task for the reader: assign each of the following compounds its reported inhibition.
Answers are plain numbers, in %.

Here are 2 compounds together with their reported answers.
[
  {
    "entrySmiles": "CC1(C)C(=O)c2c3c(c4c([nH]c5ccccc54)c2C1=O)C(=O)NC3",
    "tgt": "Serine/threonine-protein kinase Chk1 (Homo sapiens) (UniProt O14757)",
    "resultType": "inhibition",
    "unitInfo": "%",
    "quantitativeReadout": 20
  },
  {
    "entrySmiles": "O=C1NC(=O)c2c1c1c(O)ccc3c1c1c2c2ccccc2n1[C@]1(O3)O[C@H](CO)[C@@H](O)[C@H](O)[C@H]1O",
    "tgt": "Serine/threonine-protein kinase Chk1 (Homo sapiens) (UniProt O14757)",
    "resultType": "inhibition",
    "unitInfo": "%",
    "quantitativeReadout": 73
  }
]

// each listed compound needs a value for inhibition
1. CC1(C)C(=O)c2c3c(c4c([nH]c5ccccc54)c2C1=O)C(=O)NC3=O
2. O=C1NCc2c1c1c(c3c2[nH]c2ccccc23)C(=O)NC1=O

Response:
1. 63
2. 83

* * *

# tgt: Serine/threonine-protein kinase Chk1 (Homo sapiens, UniProt O14757)
# Sequence (O14757 whole entry): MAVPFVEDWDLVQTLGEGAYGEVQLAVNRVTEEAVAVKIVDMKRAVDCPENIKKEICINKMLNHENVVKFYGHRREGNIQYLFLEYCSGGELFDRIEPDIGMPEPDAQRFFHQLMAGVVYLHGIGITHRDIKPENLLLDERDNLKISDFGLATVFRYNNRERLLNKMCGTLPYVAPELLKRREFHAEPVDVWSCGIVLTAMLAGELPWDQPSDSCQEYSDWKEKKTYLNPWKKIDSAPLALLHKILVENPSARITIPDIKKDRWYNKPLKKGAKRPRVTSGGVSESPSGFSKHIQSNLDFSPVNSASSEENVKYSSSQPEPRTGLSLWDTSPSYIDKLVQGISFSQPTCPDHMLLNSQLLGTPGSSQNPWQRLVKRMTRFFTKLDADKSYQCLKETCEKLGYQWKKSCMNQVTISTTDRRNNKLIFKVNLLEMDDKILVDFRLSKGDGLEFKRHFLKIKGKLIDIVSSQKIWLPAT
resultType: pIC50
Numbers only, as −log10 of the molar value.

Query O=C1NCc2c1c1c(c3c2[nH]c2ccccc23)C(=O)NC1=O yields pIC50 of 7.62
